# System: COLO 205
# Assay details: NCI tumour cell line growth inhibition, 48 h
Active and inactive are the calls of the source. Cut-off read from the data, not from the text of the source: active = GI50 up to about 1.1 µM and inactive = higher.
Result category, one only: true (1) for active, false (0) for inactive

Some entries whose results are on file:
Compound | Label class
O=c1[nH]c(=O)n(C2CC(O)C(CO)O2)cc1I (configuration not stated) | false (0)
CC(C)(C)c1ccc(-c2nc3ccccc3c(=O)o2)cc1 | false (0)

Req: What outcome does the record of this test show for c1csc(-c2cscc2-c2cccs2)c1 ?
Resp: false (0)

Req: What outcome does the record of this test show for CC1(C)OCC2(CO1)CSCCCSCC1(COC(C)(C)OC1)CSCCCSC2 ?
Resp: false (0)

Req: What outcome does the record of this test show for COc1ccc(/C=C2/C(=O)N(/C=C3\C(=O)Oc4ccccc4C3=O)/C(=N/C(C)=O)N2C)cc1OC ?
Resp: false (0)

Req: What outcome does the record of this test show for CC1(C)N=C(c2ccccn2)C(c2ccccn2)=NC1(C)C ?
Resp: false (0)

Req: What outcome does the record of this test show for O=C(Nc1cc2cc([N+](=O)[O-])ccc2oc1=O)c1cccs1 ?
Resp: false (0)

Req: What outcome does the record of this test show for [N-]=[N+]=C1C(=O)C2CC3CC1CC2C3 (configuration not stated) ?
Resp: false (0)

Req: What outcome does the record of this test show for O=C(NCc1ccccc1)c1cnc(Cl)cn1 ?
Resp: false (0)

###

# System: 786-0
# Assay details: NCI tumour cell line growth inhibition, 48 h
Calls of active or inactive are those of the source. Cut-off read from the data, not from the text of the source: active = GI50 up to about 1.1 µM and inactive = higher.
Result category, one only: TRUE = active, FALSE = inactive

Some entries whose results are on file:
Compound | Label class
CC(=O)OC(CC1(C)C(C)CCC23COC(=O)C2=CCCC31)c1ccoc1 (centres undefined) | FALSE
CC(=O)OCC1OC(n2c(C)c(C(C)=O)c(-c3ccco3)c(C#N)c2=S)C(OC(C)=O)C(OC(C)=O)C1OC(C)=O (centres undefined) | FALSE

Req: What outcome does the record of this test show for N=C(N)Nc1nc2cc([N+](=O)[O-])ccc2[nH]1 ?
Resp: FALSE

###

# Test system: UACC-62
# Assay details: NCI tumour cell line growth inhibition, 48 h
Calls of active or inactive are those of the source. Cut-off read from the data, not from the text of the source: active = GI50 up to about 1.1 µM and inactive = higher.
Result category, one only: TRUE for active, FALSE for inactive

Some entries whose results are on file:
Molecule | Label class
Cc1n[n+]([O-])c(C)cc1[N+](=O)[O-] | FALSE
O=C(OCC1OC2OC(c3ccccc3)(n3ccc4c([N+](=O)[O-])ccnc43)OC2C1OC(=O)c1ccccc1)c1ccccc1 (stereo not drawn) | FALSE
Cc1ccc(S(=O)(=O)N2CC2CCCCC=O)cc1 (stereo not drawn) | FALSE
O=C1C(c2ccccc2)=C(O)c2cccc3cccc1c23 | FALSE
O=c1c(F)cn(Cc2c(Cl)cccc2Cl)c(=O)n1Cc1c(Cl)cccc1Cl | FALSE
O=C(c1ccccc1)C1C(c2ccccc2[N+](=O)[O-])N1C1CCCCC1 (stereo not drawn) | FALSE

Req: What outcome does the record of this test show for Cc1c(N)c(C#N)c2n(C)c3ncccc3n2c1=O ?
Resp: FALSE

Req: What outcome does the record of this test show for NNS(=O)(=O)c1cc(C(=O)O)cc(C(=O)O)c1 ?
Resp: FALSE

Req: What outcome does the record of this test show for O/N=C1/CCCC/C1=C/C=C/c1ccccc1 ?
Resp: FALSE

Req: What outcome does the record of this test show for Cn1cnc([N+](=O)[O-])c1Sc1nc(N)nc2c1ncn2Cc1ccccc1 ?
Resp: FALSE

Req: What outcome does the record of this test show for COc1ccc(NC(=O)/C(=C/c2ccc(N(CCC#N)CCC#N)cc2)NC(=O)c2cc([N+](=O)[O-])ccc2Cl)cc1 ?
Resp: FALSE

###

# System: CAKI-1
# Assay details: NCI tumour cell line growth inhibition, 48 h
Activity calls are given as the source filed them. Rule as the data show it: active = GI50 up to about 1.1 µM and inactive = higher.
Result category, one only: active, inactive

Molecule | Label class
O=C1C=CC(=O)N1c1ccc(I)cc1 | inactive
COc1cc2c(cc1OCCCCN1CCN(CCCCOc3cc4c(cc3OC)C(=O)N3CCC[C@H]3C=N4)CC1)N=C[C@@H]1CCCN1C2=O | active
O=C(O)C(Cc1ccccc1-c1ccccc1)C(=O)O | inactive
CCN(CC)CC1CCCCN1CC(=O)N1CC(C)C(=O)Nc2ccccc21 (centres undefined) | inactive
Nc1c2ccccc2nc2c(C(=O)Nc3ccc(S(N)(=O)=O)cc3)cccc12 | inactive
Cc1c/c(=N\c2ccc3c(c2)c(N)cc(C)[n+]3C)nc(N)n1C | inactive
C/C(O)=C/C(=O)c1[nH]c(C(=O)O)cc1C1CCN(Cc2ccccc2)C1=O (centres undefined) | inactive
C=C1C(C2(C)C(OC(C)=O)CC(=O)OC(C)(COC(C)=O)C2CC(=O)OC)C(OC=O)C(OC(=O)C(O)C(C)CC)C2(C)C(c3ccoc3)CC(=O)C12O (centres undefined) | inactive

Req: What outcome does the record of this test show for C=C(C)COC(=O)COCC(=O)OCC(=C)C ?
Resp: inactive

###

# Tested on: OVCAR-8
# Assay details: NCI tumour cell line growth inhibition, 48 h
Calls of active or inactive are those of the source. Rule as the data show it: active = GI50 up to about 1.1 µM and inactive = higher.
Result category, one only: 1 = active, -1 = inactive

Some entries whose results are on file:
Molecule | Label class
COc1ccc2c(c1)c(=O)c1c(NCCCN(C)CCCNc3ccc4c(=O)n(CCN(C)C)c(=O)n5c6ccc(OC)cc6c(=O)c3c45)ccc3c(=O)n(CCN(C)C)c(=O)n2c31 | 1
COc1ccc(C(=O)N(Cc2cccnc2)C(=S)N(Cc2cccnc2)C(=O)c2ccc(OC)cc2)cc1 | -1
O=S1(=O)CCC2=CC(C(F)(F)F)=CC(C(F)(F)F)=CN21 | 1
CCN(CC)CC(=O)Nc1c(C(N)=O)nnn1Cc1cc(Cl)c(C(=O)c2ccc(Cl)cc2)c(Cl)c1 | -1
CC(=O)OC(CC1(C)C(C)CCC23COC(=O)C2=CCCC31)c1ccoc1 (stereo not given) | -1
COc1cc(C2c3cc4c(cc3OC3(OC)COC(=O)C23)OCO4)cc(OC)c1OC (stereo not given) | 1
O=C(Cc1nc2ccccc2s1)C(=O)Nc1cccc(Cl)c1 | -1
O=C(Cn1c(C(=O)c2ccccc2)nc2ccccc21)c1ccccc1 | -1

Req: What outcome does the record of this test show for CCCCCCCCCCCC(=O)NCc1ccc(OC(=O)CCCCCCCCCCC)c(OC)c1 ?
Resp: -1

###

# Tested on: NCI-H23
# Assay details: NCI tumour cell line growth inhibition, 48 h
Active and inactive are the calls of the source. Rule as the data show it: active = GI50 up to about 1.1 µM and inactive = higher.
Result category, one only: true (1) (active), false (0) (inactive)

Some entries whose results are on file:
Compound | Label class
COC(=O)c1c(C)cc2c(c1O)C1(O)C(=O)c3cc4c(c(O)c3C(=O)C1(OC)C(O)C2)C(=O)C=C(NC1OC(C)C(OC)C(O)C1OC)C4=O (stereo unspecified) | true (1)
OCC1(CNc2cc(Cl)ncn2)CCC1 | false (0)

Req: What outcome does the record of this test show for CC(C)(C)[C@H]1CO[C@]2(c3ccccc3)[C@@H]3C[C@@H]3C(=O)N12 ?
Resp: false (0)

Req: What outcome does the record of this test show for CCOC(=N)CC(=O)NC(C)c1ccccc1 (stereo unspecified) ?
Resp: false (0)

Req: What outcome does the record of this test show for COC1(C(C)(C)C)C=C(C(C)(C)C)P(=O)(O)O1 (stereo unspecified) ?
Resp: false (0)

Req: What outcome does the record of this test show for CCOC(=O)c1ccc(-c2cc(C)[nH]n2)[nH]1 ?
Resp: false (0)

Req: What outcome does the record of this test show for COc1cc(Cl)cc(N(O)C(C)=O)c1OCc1ccccc1 ?
Resp: false (0)

Req: What outcome does the record of this test show for O=[N+]([O-])c1ccc(O)c(/C=N/CC2CCCN3CCCCC23)c1 (stereo unspecified) ?
Resp: false (0)

Req: What outcome does the record of this test show for Cc1cc2nc(C=C(C(F)(F)F)C(F)(F)F)oc2cc1C ?
Resp: false (0)

Req: What outcome does the record of this test show for CC(=O)OC(CC1(C)C(C)CCC23COC(=O)C2=CCCC31)c1ccoc1 (stereo unspecified) ?
Resp: false (0)

Req: What outcome does the record of this test show for C[C@@H](NC(C#N)c1ccco1)c1ccccc1 (stereo partly specified) ?
Resp: false (0)

###

# Tested on: SK-MEL-28
# Assay details: NCI tumour cell line growth inhibition, 48 h
Activity calls are given as the source filed them. No stated cut-off is given here; in the data, active = GI50 up to about 1.1 µM and inactive = higher.
Listed here: items and their measured GI50.

Compound | Value kind | Measured
C(#C[C@@]12CCC[C@@H]1N(Cc1ccccc1)CO2)c1ccc2c(c1)OCO2 | GI50 | > 100 µM (inactive)

Req: Look up GI50: CC(C)(C)c1ccc(-c2nc3ccccc3c(=O)o2)cc1
Resp: 42.5 µM (inactive)

Req: Look up GI50: COc1ccc(/C=C/C(=O)Oc2ccccc2OC)cc1
Resp: 73.5 µM (inactive)

Req: Look up GI50: Nc1cc(S(N)(=O)=O)ccc1SSc1ccc(S(N)(=O)=O)cc1N
Resp: > 100 µM (inactive)

Req: Look up GI50: O=[N+]([O-])c1ccc2c3c1[C@@H]1O[C@@H]1c1cccc(c1-3)[C@@H]1O[C@H]21
Resp: 3.1 µM (inactive)
